For each of the molecules below, state its TGI.
# Tested on: MDA-MB-435
# protocol.description: NCI tumour cell line growth inhibition, 48 h

For COc1ccc(/C=C\c2cc(OC)c(OC)c(OC)c2)cc1OCC(=O)Nc1nc2ccc(F)cc2s1 , what is its reported TGI?
> 100 µM

Bench note: what TGI did COc1ccc(S(=O)(=O)N2C(=O)CCC2C(=O)NC(N)=O)cc1 (stereo unspecified) show?
> 100 µM

Recorded TGI for O=C(O)c1cc(-c2ccc3cc4c(cc3c2)OCO4)nc2ccccc12 , please?
> 100 µM

Query (molecule): Cc1c(-c2cnccn2)ssc1=S ; field requested: TGI
> 100 µM

Which TGI value belongs to Cc1ccc(CC(Cc2ccccc2C)C(=O)O)c(C(=O)O)c1 (stereo unspecified) ?
> 100 µM

What measured TGI goes with NC1N=C(c2ccc(Cl)cc2)C2=C(N1)c1ccccc1CC2 (stereo unspecified) ?
> 22.6 µM

Please look up its TGI: COc1ccccc1Nc1nc2c([nH]1)c(=O)n(C)c(=O)n2C
> 10 µM

Form field: reported TGI of Cc1ccc2c(c1)C(=C(C#N)C#N)CCCS2(=O)=O
> 100 µM

Look up TGI for this molecule: COc1ccc(C2SC(N)=Nc3c2c(C)nn3C(=O)c2ccccc2O)cc1OC (stereo unspecified)
> 10 µM

Entry under review: COc1ccc(C(CC2(c3ccc(OC)cc3)SCCCS2)NC(C)=O)cc1 (stereo unspecified) . Reported TGI?
> 100 µM

// lookup TGI for CCOC(=O)c1nc2cc(C(F)(F)F)ccc2nc1Oc1ccc(C#N)cc1
> 100 µM

* * *

Hi there, I'd appreciate the recorded TGI for every entry that follows.
# System: U251 CNS
# protocol.description: NCI tumour cell line growth inhibition, 48 h

Given CN(CCS(=O)(=O)N1C(=O)C2CCCN2C(=O)[C@@H]1Cc1ccccc1)C(=O)OCc1ccccc1 (stereo partly drawn) , state its recorded TGI.
> 100 µM

GET /values?readout=TGI&item= O=c1c2c(nc3n1CCS3)[nH]c1cc([N+](=O)[O-])ccc12
> 100 µM

Reported TGI, molecule O=C1[C@H]2ON(c3ccccc3)C(c3ccc([N+](=O)[O-])cc3)[C@H]2C(=O)N1c1ccc(Cc2ccc(N3C(=O)[C@@H]4ON(c5ccccc5)C(c5ccc([N+](=O)[O-])cc5)[C@@H]4C3=O)cc2)cc1 (stereo partly drawn) : ____
> 100 µM

I am curious: what TGI value has been reported for COc1cc(OC)cc(OCc2nc3cc(C(F)(F)F)ccc3nc2-c2ccccc2)c1 ?
> 100 µM

Query: TGI; subject: C/C=C(\C)c1cc(=O)c2c(C)cc3c(c2o1)C(=O)c1c(O)c(C2CC(C)(N(C)C)C(OC(C)=O)C(C)O2)cc(C2CC(N(C)C)C(O)C(C)O2)c1C3=O (stereo not drawn)
> 50 µM

// TGI lookup, key: Cc1ccc2c(c1)SC1=Nc3sc4cc(C)ccc4[n+]3CN12
19 µM

Entry CC1=N/C(=C/c2ccc3c(c2)OCO3)C(=O)O1 : reported TGI = ?
> 100 µM

Quick check: TGI of CNC(=O)OCc1nc(SC)n(C)c1CO ?
> 100 µM

* * *

# Tested on: DU-145 prostate
# protocol.description: NCI tumour cell line growth inhibition, 48 h
Please go through the items and note down their TGI.
Form entry: value (µM) — number only.

For DU-145 prostate, provide TGI of CCCCN1C(=O)C2Cc3c([nH]c4ccccc34)C(c3cccc(O)c3)N2C1=O (stereo unspecified) please.
33.1

Request - read-out TGI | tested on DU-145 prostate | compound O=C(CN(/C=C/C(=O)C(F)(F)F)c1ccc(Cl)cc1)c1ccc(Cl)cc1
29.5

Request body: readout TGI, system DU-145 prostate, query Oc1c(Br)cc(/C=C/c2ccnc(/C=C/c3cc(Br)c(O)c(Br)c3)c2)cc1Br . Return the value.
39.1

* * *

Exercise: state measured TGI for each of the molecules provided.
# System: COLO 205 colon
# protocol.description: NCI tumour cell line growth inhibition, 48 h

What value of measured TGI is listed for CSc1ncnc2c1ncn2CCC(=O)O ?
> 100 µM

Param item = CSC1=N/C(=C\c2ccc(Cl)cc2)C(=O)N1CN1CCCCC1 ; retrieve measured TGI.
> 100 µM

Please give the measured TGI for this molecule: OC12c3ccccc3C1CCCCC2N1CCCC1 (stereo not drawn)
> 100 µM

* * *

# System: SF-268 CNS
# protocol.description: NCI tumour cell line growth inhibition, 48 h; in the data active = GI50 below about 0.43 µM; inactive = the rest
Write down one outcome, taken from active, inactive

Look up the recorded call for NS(=O)(=O)OC[C@H]1C[C@@H](Nc2ccnc3cc(-c4cccc(SC(F)(F)F)c4)nn23)[C@H](O)[C@@H]1O in this test.
active

Assay outcome for O=C(NCCCCN1CCOCC1)c1cc2ccccc2o1 : what was it?
inactive

What is the recorded call for this molecule in the test? COc1ccc(C2(Cl)c3ccccc3N(c3ccccc3)c3ccccc32)cc1
inactive

Which outcome was assigned to Nc1nc(/C=C\c2ccc([N+](=O)[O-])s2)nc(N2CCN(c3ccccc3)CC2)n1 in this test?
inactive

Field: outcome | Entry: O=C1NC(=C(Cl)Cl)/C(=N/S(=O)(=O)N2CCCCC2)N1
inactive

I would be grateful if you could indicate the recorded call for CCOC(=O)c1cc(C(=O)c2ccc(OC)cc2)n2ccc(/C=C/c3cc[n+](CC(=O)c4ccc(OC)cc4)cc3)cc12 .
inactive

* * *

# Tested on: NCI-H460 lung
# protocol.description: NCI tumour cell line growth inhibition, 48 h
Where a SMILES comes first, the peptide text is derived from it. The star is where a group is joined. Fmoc = O=C(OCC1c2ccccc2-c2ccccc21)*; OtBu = CC(C)(C)O*
measured.quantity: TGI

Look at this compound and give its reported TGI. O=C(O)c1ccccc1C(=O)NCC1S(=O)(=O)OCCOS1(=O)=O
> 100 µM

Recorded TGI of C=C(C)[C@H]1CC[C@@]2(C)C(C1)[C@H](C)CC[C@@H]2O (stereo not given in full) , please.
> 100 µM

Data request, read-out TGI, for CCc1cccc(C(C)C)c1NC(=O)C(=O)C1C(=O)Nc2ccccc2S1=O (stereo not given)
> 100 µM

Consider the compound shown here: O=C1C2C(C(=O)N1c1ccccc1)C1(c3ccccc3)CCC2(C(=O)c2ccccc2)O1 (stereo not given) What is its recorded TGI?
> 10 µM

Using the record for CC(C)C(NC(=O)OCC1c2ccccc2-c2ccccc21)C(=O)NC(CCC(=O)OC(C)(C)C)C(=O)OC(C)(C)C (stereo not given) (Fmoc-Val-Glu(OtBu)-OtBu; configuration not given here) , report its TGI.
> 100 µM

* * *

# Tested on: UO-31 renal
# protocol.description: NCI tumour cell line growth inhibition, 48 h; in the data active = GI50 below about 0.43 µM; inactive = the rest
Respond only with the outcome that fits, drawn from true (active), false (inactive)

Recorded test call requested for Clc1c(Cl)[n+](Cc2ccc3ccccc3c2)cn1Cc1ccc2ccccc2c1
false

What call does the record list for COc1c/c(=C2\C=c3ccccc3=N2)[nH]/c1=C\c1[nH]c(C)cc1C ?
true

Lab log entry: CCc1ccc(Oc2c(-c3ccc(OCc4ccc(Cl)cc4)cc3O)n[nH]c2C(F)(F)F)cc1 — outcome as called in the assay?
false

Can you look up the reported call for Cc1cc2c(C(=O)NC[C@H](C)c3ccccc3)c(O)c(O)cc2c(O)c1-c1c(C)cc2c(C(=O)NC[C@H](C)c3ccccc3)c(O)c(O)cc2c1O for me?
true

Record lookup: outcome of this test for CCCCCCCCCCCCCCCC1=NCC[N+]1(CCO)CCO ?
false

Check the results log: what was the call for COc1cc(/C=C2\CC3C4CC=C5C[C@@H](OC(C)=O)CC[C@]5(C)C4CC[C@]3(C)C2=O)ccc1OCCN1CCCCC1 (some centres undefined) ?
false

Check the results log: what was the call for Cc1c(C)n(CCCN2CCN(C)CC2)c2ccc(Oc3cccc(C(=O)N4CCN(CCc5ccc(F)cc5)CC4)c3)cc12 ?
false

Kindly provide the recorded test outcome for the following compound: CN[C@H]1CN(c2ccc3c(=O)c(C(=O)O)cn(-c4nccs4)c3n2)C[C@@H]1OC
false

Kindly provide the recorded test outcome for the following compound: COc1cc2c(cc1OC(C)C)[C@H](c1ccc(Cl)cc1)N(c1ccc(N(C)CC3CCC(N4CCN(C)C(=O)C4)CC3)cc1)C(=O)C2 (some centres undefined)
true

* * *

# Tested on: SK-MEL-5 melanoma
# protocol.description: NCI tumour cell line growth inhibition, 48 h
measured.quantity: TGI

# query: TGI of entry COC(COC(N)=O)C1=C(N2CC2)C(=O)C(C)=C(N2CC2)C1=O (centres undefined)
0.128 µM

Consider the molecule CCOC(=O)c1cnc(N(C)C)nc1SC(=N)N and give its measured TGI.
> 100 µM

Please give the measured TGI for this molecule: CCOC(=O)Cc1c(C)c2cc(C(=O)c3ccccc3)c(O)cc2oc1=O
40 µM

Name the reported TGI value associated with the molecule CC[C@]12C=CCN3CC[C@@]4(c5cc(N=O)c(OC)cc5N(C)[C@H]4[C@@](O)(C(=O)OC)[C@@H]1OC(C)=O)[C@@H]32
> 100 µM

I have this molecule here, O=C(CSc1nc2c(n1Nc1ccccc1)-c1ccccc1SC2)Nc1nc(-c2ccc(Cl)cc2)cs1 , and I need its recorded TGI.
> 100 µM

Field request: TGI | item: O=C(CCC(=O)Nc1ccc(Cl)c(Cl)c1)Cc1nc2ccccc2o1
> 100 µM

Any idea what its TGI is? The molecule is Cc1c(C)c2ccc3oc4ccccc4c3c2oc1=O
> 100 µM

What does the record list as TGI for C=C(c1ccc(OC)c(/C=C/C(=O)c2ccc3c(c2)OCO3)c1)c1cc(OC)c(OC)c(OC)c1 ?
6.71 µM

I would be grateful if you could share the reported TGI for O=C(COc1ccc(Cl)c(Cl)c1)Nc1ccc[n+](Cc2ccc(S(=O)(=O)F)c(Cl)c2)c1 .
> 100 µM
